Source of measurements: the MegaScale stability set (Tsuboyama et al. 2023)

B1: EEHEE_rd3_1049 (parent)
chain: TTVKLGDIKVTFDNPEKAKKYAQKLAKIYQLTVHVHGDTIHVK

Variants of: B1
Experiment: folding stability dG (cDNA display proteolysis); higher = more stable
Details: PBS, room temperature
Assay metric: folding stability dG (kcal/mol)
Answers are plain numbers, in kcal/mol.

Solved entries:
TTVKLGDIKVTFDNPEKAGKYAQKLAKIYQLTVHVHGDTIHVK [K19G]; 0.985
TTVKIGDIKVTFDNPEKAKKYAQKLAKIYQLTVHVHGDTIHVK [L5I]; 2.79

Now for another entry.
-- ask Could you tell me which folding stability dG is on file for TTVKLGDIKVTFDNPEKAKKYAQKLAKIYQLTVHVSGDTIHVK [H36S] ?
-- reply 2.19
